attribute-measured: melting point

Would you please look over these solved cases?
molecule	data-value
O=Cc1c(Cl)c(Br)c(Br)c(Br)c1Br	268 to 269 °C
Clc1ccc(N2CC3CCC(C2)N3Cc2ccccc2)cc1	115 to 117 °C
O=C1C2CCN(CC2)C1CN1CCCCC1 (stereo not given)	34 to 37 °C

Query: Look at this molecule and give its reported melting point. "CC(C)(C)Nc1nc(NCc2ccccc2)c(C#N)cc1F"
Result: 138 to 140 °C

Query: Which value of melting point has been reported for "COc1cc2c(cc1OC)CN(C(=O)Cc1ccc([N+](=O)[O-])cc1)CC2" in the records?
Result: 110 to 111 °C

Query: Fill in: melting point of CC(C)(C)OC(=O)NC[C@H]1CN(c2ccc3c(c2)CC(C(C)(C)C)N3C=O)C(=O)O1 (stereo not given in full) is ___
Result: 153 to 161 °C

Query: Find the recorded melting point belonging to "Cc1cc(CC=CCc2cc(C)c(O)c(C(C)(C)C)c2)cc(C(C)(C)C)c1O" and report it.
Result: 99 to 106 °C

Query: Recorded melting point for "C1=NC2=C(CCC1)CSC2" , please?
Result: 55 to 57 °C

Query: # melting point lookup, item "Cn1c(Sc2cc(C(F)(F)F)ccc2C#N)n[nH]c1=O"
Result: 182 °C

Query: Returns the measured melting point for the input molecule. Input: CC(C)(C)c1ccc2c(c1)C(C(=O)Nc1c(Cl)cccc1Cl)c1ccccc1CO2 (stereo not given)
Result: 115 to 117 °C

Query: What melting point value was documented for this molecule, "O=C(O)CCCc1cc2cc(Cl)ccc2n1S(=O)(=O)c1ccc2c(c1)CCN2" ?
Result: 203 °C

Query: Entry under review: CCC(C(=O)O)N(C(=O)c1cn(-c2ccc(F)cc2F)nc1C)c1ccc(OCC(C)(C)C)c(C#N)c1 (stereo not given) . Reported melting point?
Result: 110 °C

Query: Endpoint output: melting point of "CCCc1c(OCc2ccc(C(=O)O)cc2)ccc(C(C)=O)c1O" . Value?
Result: 188 °C

Query: Query (molecule): COC1(OC)C(NC(=O)c2ccccc2O)=CC(=O)C2OC21 (stereo not given) ; field requested: melting point
Result: 147 to 149 °C

Query: Endpoint output: melting point of "CCCCCCCCn1c2cc(I)ccc2c2ccc(I)cc21" . Value?
Result: 82 to 84 °C

Query: Form field: reported melting point of "CCCc1nc2c(N)nc3ccccc3c2n1CCCCNS(C)(=O)=O"
Result: 186 to 188 °C

---

attribute-measured: melting point

compound	melting point
CC(C)c1ccc(OCCCCCCCCCCCCC(Cl)(Cl)C(=O)O)cc1	47 to 49 °C
CCN1CCCC1CNC(=O)c1cc(N(C#N)S(C)(=O)=O)ccc1OC (stereo not drawn)	50 to 54 °C

Now consider the entry below.
Query: Item CCCCCCNC(=O)c1cnc(OCC(O)CNC(C)C)nc1 (stereo not drawn) has what recorded melting point?
Result: 114 to 115 °C

---

attribute-measured: melting point

Worked cases, melting point given:
molecule	melting point
Cc1nsc(Br)c1S(=O)(=O)NC(C)(C)C	118 to 123 °C
COC(=O)C=C(OC)c1ccccc1OCc1csc(-c2ccc(F)cc2)n1	105 to 108 °C
Brc1csc2cc(OCc3ccccc3)ccc12	68 °C

Query: Record request: melting point value, item "CO/C=C(/C(=O)OC)c1ccccc1Oc1cccc(N)c1"
Result: 83 to 85 °C

Query: Which value of melting point has been reported for Cc1ccc2c(c1)[C@H]1Cc3ccccc3[C@H]1N2C (relative stereo) in the records?
Result: 54 °C

Query: I would be grateful if you could share the reported melting point for "CCOC(=O)c1cn(-c2nc(NCc3ccc(OC)cc3)c(Cl)cc2F)c2c(Cl)c(F)c(F)cc2c1=O" .
Result: 168 to 171 °C

Query: // query melting point value for entry "Cc1ncc(C#N)c(Nc2cccc3[nH]ccc23)c1-c1cc2ccccc2o1"
Result: 192 to 193 °C
